Hi there, I'd appreciate the recorded protein stability index for every entry that follows.
B1: ADAMTSL2 (parent)
chain: KKPPEESTCFERPCFKWYTSPWSE

# Variants of: B1
# Assay Details: protein stability index of a GFP-peptide fusion (GPS, HEK-293T) (PSI 1-6); higher = more stable;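 note: lentivirally expressed fusions sorted by FACS into six bins by GFP to DsRed ratio, PSI derived from sequencing read proportions per bin multiplied by bin number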
# Experimental Conditions: c terminus: a fixed tail appended
Answers are plain numbers.

Answered cases to consult:
Variant Name | Val
C14G | 3.12
T8R | 2.14
E5G | 2.2
K2V | 2.04
T8V | 2.28
F15M | 2.06

Could I get protein stability index for every one of these entries?
1. C14R
2. P13L
3. S23T
4. T8K
5. F15Q
6. E24F
7. Y18R

3.7
2.09
1.87
2.89
2.63
2.27
2.71

Could I get protein stability index for every one of these entries?
1. C9W
2. F10L
3. E11M
4. F10M
5. K16W
6. W22D
7. P4I
8. T19M

[2.04, 2.81, 1.98, 2.83, 1.86, 3.79, 2.26, 2.2]
